Values were extracted from paper PMC4168784.

# reported Kd; entries follow
# TARGET_OF_ASSAY: YxeB-L142-6×His (Bacillus cereus, UniProt Q81IK3)
# Sequence (Q81IK3 19-306): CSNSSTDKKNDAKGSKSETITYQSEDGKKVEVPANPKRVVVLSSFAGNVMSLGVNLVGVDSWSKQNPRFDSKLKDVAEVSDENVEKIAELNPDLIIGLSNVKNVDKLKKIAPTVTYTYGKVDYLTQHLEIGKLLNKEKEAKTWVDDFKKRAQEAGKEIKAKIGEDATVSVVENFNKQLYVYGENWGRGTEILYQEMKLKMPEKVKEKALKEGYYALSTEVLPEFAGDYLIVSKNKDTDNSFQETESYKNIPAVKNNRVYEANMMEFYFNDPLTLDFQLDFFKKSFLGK
# ASSAY_NOTES: Fluorescence quenching
# Type: binding
# REPORTED_CONDITIONS: read-out: Kd (nM) by FQ assay; calculated by Hyperquad; SD in parentheses
Answer format: numeric, nM implied, no suffix.

[[record]]
compound = "CC(=O)N(O)CCCCCNC(=O)CCC(=O)N(O)CCCCCNC(=O)CCC(=O)N(O)CCCCCN.[Ga+3] [Ga-DFO]"
quantity = "Kd"
endpoint_value = 59.2


We next turn to a different compound, shown below.
Measured Kd for this entry CC(=O)NCCCCCN(O)C(=O)CCC(=O)NCCCCCN(O)C(=O)CCC(=O)NCCCCCN(O)C(C)=O.[Fe+3] [AcFO] on YxeB-L142-6×His (Bacillus cereus, UniProt Q81IK3): 25.4
